- Test system: Avena fatua (AVEFA)
- MEASUREMENT_DESCRIPTION: Glasshouse assay for herbicidal activity (pre- and post-emergence), percentage phytotoxicity
- Assay type: in vivo
- EXPERIMENTAL_PARAMETERS: Avena fatua, pre-emergence, 480 h, Rate 250 g/ha; pre-emergence; assessed visually 20 DAA; 100%=total damage, 0%=no damage; read-out: Pre-emergence herbicidal activity (percentage phytotoxicity) AVEFA PRE
QUANTITY_NAME: pest or weed control at 250 g/ha (%)
Response body: numeric value in %, unit text excluded.

COMPOUND	UNIT_INFO	pest or weed control at 250 g/ha
Cc1cc(-n2cc(Cl)cn2)cc(C)c1C1C(=O)CC(CC(=O)NCc2ccccn2)C1=O (centres unmarked)	%	80
Cc1cc(C)c(C2C(=O)CC(CC(=O)N3CCSCC3)C2=O)c(C)c1 (centres unmarked)	%	30
Cc1cc(C)c(C2C(=O)CC(CC(=O)NC(C)C)C2=O)c(C)c1 (centres unmarked)	%	60
Cc1cc(C)c(C2C(=O)CC(CC(=O)NCc3ccc(C)o3)C2=O)c(C)c1 (centres unmarked)	%	0
Cc1cc(C)c(C2C(=O)CC(CC(=O)NCC(C)(C)C)C2=O)c(C)c1 (centres unmarked)	%	70

Note: attention shifts to another entry.
Exercise: pest or weed control at 250 g/ha for Cc1cnc(CNC(=O)CC2CC(=O)C(c3c(C)cc(-c4ncc(Cl)cc4F)cc3C)C2=O)cn1 (centres unmarked) ?
Key: 100

// provenance: patent US10206394B2
